Values were extracted from patent US8871777B2.

target.of.assay: PDE6 in bovine retina (Bos taurus, UniProt P11541+P23439)
Construct: obtained by suitably treating various tissues and separating the enzyme with FPLC; from tissue; host or cells: bovine retina
Sequence (P11541 2-856 limits assumed): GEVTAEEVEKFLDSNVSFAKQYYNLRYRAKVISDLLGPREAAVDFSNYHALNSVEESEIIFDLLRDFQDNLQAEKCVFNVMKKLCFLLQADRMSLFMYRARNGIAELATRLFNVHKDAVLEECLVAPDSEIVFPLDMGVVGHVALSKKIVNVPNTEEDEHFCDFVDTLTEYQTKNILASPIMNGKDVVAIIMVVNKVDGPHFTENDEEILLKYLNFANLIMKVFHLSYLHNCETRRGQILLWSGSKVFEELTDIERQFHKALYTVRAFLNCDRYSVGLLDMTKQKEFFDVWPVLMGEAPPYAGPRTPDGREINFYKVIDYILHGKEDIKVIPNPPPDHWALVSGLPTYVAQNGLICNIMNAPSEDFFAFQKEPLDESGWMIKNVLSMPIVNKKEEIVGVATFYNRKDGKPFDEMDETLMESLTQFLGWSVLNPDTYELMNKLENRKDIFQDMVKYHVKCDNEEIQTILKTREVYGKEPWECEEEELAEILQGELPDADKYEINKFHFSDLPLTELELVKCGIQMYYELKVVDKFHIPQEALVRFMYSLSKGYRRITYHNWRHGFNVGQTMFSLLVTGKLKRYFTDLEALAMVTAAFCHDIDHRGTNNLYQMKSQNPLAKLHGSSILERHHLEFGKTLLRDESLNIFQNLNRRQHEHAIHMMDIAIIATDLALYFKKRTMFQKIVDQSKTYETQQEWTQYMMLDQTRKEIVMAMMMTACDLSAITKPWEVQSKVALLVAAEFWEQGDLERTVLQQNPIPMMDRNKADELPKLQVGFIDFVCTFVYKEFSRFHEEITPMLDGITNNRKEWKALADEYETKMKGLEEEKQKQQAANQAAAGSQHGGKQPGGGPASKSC
Sequence (P23439 2-850 limits assumed): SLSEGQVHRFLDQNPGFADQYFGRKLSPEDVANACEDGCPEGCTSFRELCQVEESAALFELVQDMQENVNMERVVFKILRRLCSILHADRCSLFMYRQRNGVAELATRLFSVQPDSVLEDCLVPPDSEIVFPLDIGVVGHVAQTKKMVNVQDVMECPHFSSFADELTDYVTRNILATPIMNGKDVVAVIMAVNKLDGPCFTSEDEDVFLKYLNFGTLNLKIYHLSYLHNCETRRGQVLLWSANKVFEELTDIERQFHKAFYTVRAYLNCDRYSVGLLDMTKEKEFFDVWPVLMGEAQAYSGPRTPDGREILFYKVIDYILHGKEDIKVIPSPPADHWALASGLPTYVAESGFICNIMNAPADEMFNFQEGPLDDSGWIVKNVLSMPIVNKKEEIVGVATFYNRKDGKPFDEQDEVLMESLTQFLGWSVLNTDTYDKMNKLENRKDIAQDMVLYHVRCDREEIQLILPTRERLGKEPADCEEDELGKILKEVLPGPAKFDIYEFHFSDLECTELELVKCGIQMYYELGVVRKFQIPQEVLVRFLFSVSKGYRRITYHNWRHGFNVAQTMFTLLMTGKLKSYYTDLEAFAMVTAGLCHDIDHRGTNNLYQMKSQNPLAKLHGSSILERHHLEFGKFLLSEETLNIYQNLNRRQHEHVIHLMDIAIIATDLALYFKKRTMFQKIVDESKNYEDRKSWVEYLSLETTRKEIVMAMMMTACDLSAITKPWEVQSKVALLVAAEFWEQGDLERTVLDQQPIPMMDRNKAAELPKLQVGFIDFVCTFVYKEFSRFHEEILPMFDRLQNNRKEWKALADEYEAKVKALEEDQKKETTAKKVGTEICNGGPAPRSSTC
assay: PDE6 enzyme inhibition activity test (scintillation proximity)
Type: biochemical
particulars: selectivity, ratio of IC50 PDE6/IC50 PDE5
Reported PDE6 IC50/PDE5 IC50 values are given for each entry in this list.

{"columns": ["molecule", "experimental.readout", "value.measured"],
 "data": [
  ["CCCOc1ccc(NC(=O)C(Cc2ccccc2)NC(C)=O)cc1-c1nc(CC)c(CC)c(=O)[nH]1 (stereo not drawn)", "PDE6 IC50/PDE5 IC50", 7.80],
  ["CCCOc1ccc(NS(C)(=O)=O)cc1-c1nc(C(C)C)c(Br)c(=O)[nH]1", "PDE6 IC50/PDE5 IC50", 91.9],
  ["CCCOc1ccc(C(=O)NC(CC(N)=O)C(=O)O)cc1-c1nc(CC)c(CC)c(=O)[nH]1 (stereo not drawn)", "PDE6 IC50/PDE5 IC50", 7.2],
  ["CCCOc1ccc(NC(=O)NCCN(CC)CC)cc1-c1nc(CC)c(CC)c(=O)[nH]1.O=C(O)/C=C\\C(=O)O", "PDE6 IC50/PDE5 IC50", 61.9],
  ["CCCOc1ccc(C(=O)NC2CCC(C(=O)OC)NC2)cc1-c1nc(CC)c(CC)c(=O)[nH]1 (stereo not drawn)", "PDE6 IC50/PDE5 IC50", 30.3]
]}

Now let's try a different one.
// field: PDE6 IC50/PDE5 IC50; key: CCCOc1ccc(S(=O)(=O)NCCS(=O)(=O)O)cc1-c1nc(CC)c(CC)c(=O)[nH]1 ; value = 14.6
